test system: PRMT1 (protein arginine N-methyltransferase 1); test: PRMT1 binders on small-molecule microarrays, primary screen, biochemical, small-molecule microarray, 635 nm fluorescence (AID 1088); conditions: small-molecule microarray binding, higher = more signal;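 further: binding of Prmt1 protein to compounds spotted on small-molecule microarray slides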
Decision: composite z-score >= 1 yields y, all other cases yield n.

compound	answerLabel
CCOC(=O)C1=C[C@@H](C(C)(C)C)N(S(=O)(=O)c2ccc(C)cc2)[C@H]1c1cccc(Cl)c1	y
C=CCC(OC(C)=O)[C@@H]1[C@@H](N(Cc2ccc(-c3cccc(C(F)(F)F)c3)o2)C(=O)Cc2ccc(OC)cc2)c2cc(OCCCO)ccc2N1C(=O)Cc1ccc2ccccc2c1 (stereo not given in full)	n
COc1ccc(C#Cc2ccc3c(c2)[C@]2(C(=O)N3)[C@H](C(=O)Nc3nc4ccccc4s3)[C@H]3C(=O)O[C@H](c4ccccc4)[C@H](c4ccccc4)N3[C@@H]2c2ccccc2OCCO)cc1	y
C=C(C)C1CCC(C(O)C2C=CC3C(=O)N(C)C(=O)C3N2Nc2cc(OC)c(OC)c(OC)c2)CC1 (stereo not given)	y
CC1(C)C(=O)C(c2ccccc2)=C2CN3C(=O)N(CCc4ccccc4)C(=O)C3(Cc3ccc(C(F)(F)F)cc3)C=C21 (stereo not given)	n
CN1C(=O)C2C(C1=O)C1C=C(CCCO)C2C(c2cccs2)N1Cc1cc2c(cc1Br)OCO2 (stereo not given)	y
COc1ccc(NC(=O)O[C@H]2[C@@H]3OC(=O)[C@H](Cc4cccc(Br)c4)C/C=C/C[C@@H](Cc4cccc(Br)c4)C(=O)O[C@H]3[C@@H](OC)O[C@@H]2CO)cc1	y
CC(C)[Si]1(C(C)C)OCc2cc(-c3ccc(-c4ccc(Cl)c(Cl)c4)o3)nc(CCc3ccccc3)c21	n
CN(C)CCCCNC(=O)[C@H]1C[C@H]2C(=O)N[C@@H](CCCC[N+](C)(C)C)C(=O)N2[C@H]1c1ccc(O)cc1	n
NC(=O)[C@@H]1[C@H]2C(=O)O[C@H](c3ccccc3)[C@H](c3ccccc3)N2[C@H](c2ccc(OCCO)cc2)[C@@]12C(=O)Nc1ccc(C#CCCO)cc12	y
CCCCC=C[C@@H](NC(=O)c1ccccc1)c1ccccc1	y
COc1ccc(C(O)C2C=CC3C(=O)N(c4ccccc4)C(=O)C3N2Nc2ccccc2F)cc1 (stereo not given)	y
O=C(NCCN1CCOCC1)[C@@H]1c2ccccc2C(=O)N(Cc2ccccc2)[C@H]1c1ccc(CO)cc1	n
O=C(O)[C@@H]1C[C@@H]2C(=O)N3CCC[C@H]3C(=O)N2[C@@H]1c1cccc(OCCO)c1	y

----------
tested on: PRMT1 (protein arginine N-methyltransferase 1); test: PRMT1 binders on small-molecule microarrays, primary screen, biochemical, small-molecule microarray, 635 nm fluorescence (AID 1088); settings: small-molecule microarray binding, higher = more signal;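 further: binding of Prmt1 protein to compounds spotted on small-molecule microarray slides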
Quick reference for composite z-score among some molecules

lineNotation	composite z-score
COCCOC(=O)N1C(=O)[C@@]2(c3cc(C#CCC(C(=O)OC)C(=O)OC)ccc31)[C@H](C(=O)NC[C@H](O)c1ccccc1)[C@H]1C(=O)O[C@H](c3ccccc3)[C@H](c3ccccc3)N1[C@@H]2c1ccc(O)cc1	1.36
C=CCNC(=O)[C@@H]1[C@H]2C(=O)O[C@H](c3ccccc3)[C@H](c3ccccc3)N2[C@H](c2ccc(O)cc2)[C@@]12C(=O)Nc1ccc(C#CCC(C(=O)OC)C(=O)OC)cc12	1.55
O=C(CS)NCCCCCNC(=O)[C@@H]1C[C@@H]2C(=O)N[C@@H](Cc3ccccc3)C(=O)N2[C@@H]1c1cccc(OCCO)c1	1.56
C=CCN1C(=O)[C@@]2(O[C@@H](CCO)[C@H]([Si](C)(C)c3ccc(OC)cc3)[C@H]2C)c2cc(N3CCOC3=O)ccc21	0.989
Cc1ccc(F)cc1S(=O)(=O)N[C@@H]1CCN(Cc2cccc3[nH]ccc23)C1	0.317
CCCNC(=O)[C@@]1(Sc2ccc(C)cc2)CC(=O)N(C2CCCCC2)[C@@H]1c1ccc(CO)cc1I	1.56

----------
molecular target: Torsin-1A-interacting protein 2 (Homo sapiens) (UniProt Q8NFQ8); assay: LULL1 binders on small-molecule microarray, primary screen, cell lysate, human LULL1 lysate, 635/667 nm fluorescence (AID 1092); details: hLULL1 lysate binding, 635 nm fluorescence, higher = more signal;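 further: probe is lysate of COS7 cells overexpressing human LULL1; score merges per-feature 667 nm fluorescence with signal-to-noise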
Sequence (Q8NFQ8 whole entry, looked up): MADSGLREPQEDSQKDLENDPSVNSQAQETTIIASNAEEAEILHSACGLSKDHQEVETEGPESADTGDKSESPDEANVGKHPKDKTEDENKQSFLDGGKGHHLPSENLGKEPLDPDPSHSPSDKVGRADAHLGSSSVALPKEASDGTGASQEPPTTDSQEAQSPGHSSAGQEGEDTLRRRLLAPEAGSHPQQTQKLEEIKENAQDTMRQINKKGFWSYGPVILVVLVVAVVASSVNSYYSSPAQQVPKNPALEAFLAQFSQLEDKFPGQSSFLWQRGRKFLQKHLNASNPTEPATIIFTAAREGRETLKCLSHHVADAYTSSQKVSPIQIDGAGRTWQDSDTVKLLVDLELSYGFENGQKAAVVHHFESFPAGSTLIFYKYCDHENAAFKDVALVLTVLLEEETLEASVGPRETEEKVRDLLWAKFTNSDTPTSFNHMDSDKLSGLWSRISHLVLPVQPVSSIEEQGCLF
Decision: composite z-score >= 1 yields t, all other cases yield f.

compound	systemUnderTest	answerLabel
COCCOC(=O)N1C(=O)[C@@]2(c3cc(C#CCC(C(=O)OC)C(=O)OC)ccc31)[C@H](c1ccc(OCCO)cc1)N1[C@H](c3ccccc3)[C@H](c3ccccc3)OC(=O)[C@H]1[C@@H]2C(=O)Nc1nc2ccccc2s1	Torsin-1A-interacting protein 2 (Homo sapiens) (UniProt Q8NFQ8)	f
C=C(CCCC)C(=O)CC[C@@H](OC(=O)c1cccnc1)c1ccc(OCCO)cc1	Torsin-1A-interacting protein 2 (Homo sapiens) (UniProt Q8NFQ8)	t
CN1C(=O)[C@@H]2[C@@H](CC(COc3ccccc3)=C([C@H](O)CCc3ccccc3)[C@@H]2CO)C1=O	Torsin-1A-interacting protein 2 (Homo sapiens) (UniProt Q8NFQ8)	f
O=C1[C@@]23C=C(Br)[C@H](C[C@@H]2COC3)[C@@]12CO2	Torsin-1A-interacting protein 2 (Homo sapiens) (UniProt Q8NFQ8)	f
COc1ccc(C(=O)Nc2cccc(CN3C(=O)[C@@]4(O[C@@H](CC(=O)N(CCO)Cc5ccccc5)[C@H]([Si](C)(C)c5ccc(OC)cc5)[C@H]4C)c4ccccc43)c2)cc1	Torsin-1A-interacting protein 2 (Homo sapiens) (UniProt Q8NFQ8)	t
COC(=O)[C@@]1(Cc2ccc(F)cc2)[C@H]2c3cc(C(=O)N4CCCC4)n(C)c3C[C@H]2CN1C(=O)c1ccccc1	Torsin-1A-interacting protein 2 (Homo sapiens) (UniProt Q8NFQ8)	t
C=C(C)[C@@H]1CC=C(C(O)C2C=CC3C(=O)N(c4ccccc4)C(=O)C3N2Nc2ccc(C#N)cc2)CC1 (some centres not stated)	Torsin-1A-interacting protein 2 (Homo sapiens) (UniProt Q8NFQ8)	t

----------
assay: PSAC antagonists in infected red cells, primary screen, cell-based, P. falciparum Indochina, OD700, 1 h (AID 1154); conditions: P. falciparum Indochina infected RBC osmotic lysis, called active from +8 up or from −8 down
Active and inactive are the calls of the source.
Possible outcomes: active, inactive

molecule	answerLabel
CCCCC(=O)N(CCN1CCOCC1)[C@@H]1CC(C(=O)NCCO)=C[C@H](Oc2c(I)cc(CO)cc2OC)[C@H]1O	inactive
COCCOC(=O)N1C(=O)[C@@]2(c3cc(C#CC4(O)CCCCCC4)ccc31)[C@H](c1ccc(OCCO)cc1)N1[C@H](c3ccccc3)[C@H](c3ccccc3)OC(=O)[C@H]1[C@@H]2C(=O)Nc1nc2ccccc2s1	inactive
O=C1C2C=CC(C(O)c3ccc4c(c3)OCO4)N(Nc3ccccc3)C2C(=O)N1c1ccccc1 (centres undefined)	inactive
Cc1ccc(S[C@]2(C(=O)NCC(C)C)CC(=O)N(C3Cc4ccccc4C3)[C@@H]2c2ccc(CO)cc2I)cc1	inactive
Cc1ccccc1C(O)C1C=CC2C(=O)NC(=O)C2N1Nc1ccc(Cl)cc1Cl (centres undefined)	inactive
CC(C)C[C@@H]1NC(=O)[C@@]23C(=O)N[C@@H](Cc4ccccc4)C2[C@H](C)[C@@]2(C)O[C@H]2C3/C=C/C/C=C\CNC(=O)[C@@H](C)NC1=O (some centres undefined)	inactive
C=C(CCCC)C(=O)CC[C@@H](OC(=O)c1cccnc1)c1ccc(OCCO)cc1	active
CC(C)C[C@@H]1NC(=O)[C@@H]2C[C@H](C(=O)NCCCCCC[N+](C)(C)C)[C@H](c3cccc(OCCO)c3)N2C1=O	inactive
COC(=O)C(CC#Cc1ccc2c(c1)[C@]1(C(=O)N2)[C@H](c2ccc(OCCO)cc2)N2[C@H](c3ccccc3)[C@H](c3ccccc3)OC(=O)[C@H]2[C@@H]1C(=O)N1CCN(c2ncccn2)CC1)C(=O)OC	inactive
CC1CC/C=C\[C@H]2OC34C=CCN(C(C)(C)C)C(=O)[C@H]3N(C(CO)C(C)C)C(=O)[C@@H]4C2C(=O)O1 (some centres undefined)	inactive
COc1cc(C(O)C2C=CC3C(=O)N(Cc4ccccc4)C(=O)C3N2n2cnnc2)cc(OC)c1OC (centres undefined)	inactive
Cc1ccc(F)cc1S(=O)(=O)N[C@@H]1CCN(Cc2cccc3[nH]ccc23)C1	inactive
CC(C)C[C@@H]1NC(=O)[C@H]2C[C@@H](C(=O)NCCCCCN)[C@@H](c3cccc(OCCO)c3)N2C1=O	inactive
CCCC=C(CCC)[C@@H](NS(=O)(=O)c1cccc2cccnc12)c1ccc(-c2ccccc2)cc1	inactive
O=c1cccc(-c2ccc(F)cc2)o1	inactive
O=C1C2C=CC(C(O)C=Cc3ccc([N+](=O)[O-])cc3)N(Nc3ccccc3)C2C(=O)N1c1ccccc1 (centres undefined)	active
CN(C)C(=O)[C@@]1(CCC(=O)OC(C)(C)C)N=C(c2ccc(OCCCO)cc2)O[C@H]1c1ccccc1CN=[N+]=[N-]	active
O=C1N(CCS(=O)(=O)c2ccccc2)Cc2ccccc2[C@@H]2OC(c3ccc(OCCCO)cc3)=N[C@]12CCS(=O)(=O)c1ccccc1	active
CCOC(=O)C[C@H]1[C@H](OC(=O)c2ccc(-c3ccccc3)cc2)[C@@H](NC(=O)CC(C)C)c2cc(OCCCO)ccc2N1C(=O)c1ccccc1	inactive
COc1ccc(CCNC(=O)[C@@]2(Cc3ccccc3I)c3ccccc3C(=O)N(Cc3ccccc3Cl)[C@H]2c2ccc(CO)cc2)cc1	inactive
C=CCNC(=O)[C@@H]1[C@H]2C(=O)O[C@H](c3ccccc3)[C@H](c3ccccc3)N2[C@H](c2ccc(OCCO)cc2)[C@@]12C(=O)N(C(=O)OCCOC)c1ccc(C#CCCO)cc12	inactive
C=C(CCCC)/C(=C/C[C@H](OC(C)=O)c1ccc(OCCO)cc1)c1cc(C(=O)OC)ccc1OC	active
C[C@]1(C(=O)NCCN2CCOCC2)c2ccccc2C(=O)N(Cc2cc(F)cc(C(F)(F)F)c2)[C@H]1c1ccc(CO)cc1	inactive
COC(=O)[C@@]1(Cc2ccc(OC)cc2)[C@H]2c3cc(C(=O)N4CCCC4)n(Cc4cc(C)n(C)n4)c3C[C@H]2CN1C(=O)c1ccccc1	inactive
O=C1O[C@H](c2ccccc2)[C@H](c2ccccc2)N2[C@H]1[C@@H](C(=O)Nc1nc3ccccc3s1)[C@]1(C(=O)Nc3ccc(C#CC4=CCCCC4)cc31)[C@H]2c1ccc(O)cc1	inactive
C=C/C=C/[C@@H]1C(=C)CN([C@@H](Cc2ccccc2)C(=O)OC)[C@H]1[C@@H](O)Cc1ccccc1	inactive
CCCCCN1CC=CC23O[C@@H]4C=CCOC(=O)[C@@H]4[C@H]2C(=O)N(CCO)[C@@H]3C1=O (some centres undefined)	inactive
CC(C)CNC(=O)[C@@H]1c2ccccc2C(=O)N(C2CCCCC2)[C@H]1c1ccc(CO)cc1	inactive
COc1ccc(C(=O)Nc2cccc(CN3C(=O)[C@@]4(O[C@@H](CC(=O)N(CCO)Cc5ccccc5)[C@H]([Si](C)(C)c5ccc(OC)cc5)[C@H]4C)c4ccccc43)c2)cc1	active
